Test: The drug is tested on Enterobacter cancerogenus strain: ATCC35316 for biotransformation. The drug concentrations were measured before and after a 12-h incubation by liquid-chromatography-coupled mass spectrometry (LC–MS)
Settings: 2 µM
property label: Bacterial Biotransformation

Example cases with answers are listed next.
molecule="CC(C)[C@H]1CC[C@H](C(=O)N[C@H](Cc2ccccc2)C(=O)O)CC1 [NATEGLINIDE]" measurement="Compound NOT metabolized"
molecule="Cc1nc2n(c(=O)c1CCN1CCC(c3noc4cc(F)ccc34)CC1)CCCC2O (stereo not given)" measurement="Compound metabolized"
molecule="OC(CCN1CCCCC1)(c1ccccc1)C1CC2C=CC1C2 (stereo not given)" measurement="Compound NOT metabolized"
molecule="CC[C@@H](CO)NC(=O)[C@@H]1C=C2c3cccc4c3c(cn4C)C[C@H]2N(C)C1.O=C(O)/C=C\\C(=O)O [METHYSERGIDE MALEATE]" measurement="Compound metabolized"
molecule=Clc1ccc(Cn2c(CN3CCCC3)nc3ccccc32)cc1 measurement="Compound NOT metabolized"

Give Bacterial Biotransformation for each listed item.
1. CC(=O)OCC(CCn1cnc2cnc(N)nc21)COC(C)=O
2. C[C@@H](CO)NC(=O)[C@@H]1C=C2c3cccc4[nH]cc(c34)C[C@H]2N(C)C1.O=C(O)/C=C\C(=O)O [ERGONOVINE MALEATE]
3. COC(=O)[C@H]1[C@H]2C[C@@H]3c4[nH]c5cc(OC)ccc5c4CCN3C[C@H]2C[C@@H](OC(=O)c2cc(OC)c(OC)c(OC)c2)[C@@H]1OC
4. CC(NC(C)(C)C)C(=O)c1cccc(Cl)c1 (stereo not given)

OUTPUT:
Compound NOT metabolized
Compound metabolized
Compound NOT metabolized
Compound NOT metabolized

Give Bacterial Biotransformation for each listed item.
1. Cc1nc(Nc2ncc(C(=O)Nc3c(C)cccc3Cl)s2)cc(N2CCN(CCO)CC2)n1.O
2. CC(=O)OCC(=O)NCCCOc1cccc(CN2CCCCC2)c1 [ROXATIDINE ACETATE]
3. COc1ccc(Cc2nccc3cc(OC)c(OC)cc23)cc1OC
4. CCCC1O[C@@H]2C[C@H]3[C@@H]4CCC5=CC(=O)C=C[C@]5(C)[C@H]4[C@@H](O)C[C@]3(C)[C@]2(C(=O)CO)O1 (stereo not given in full) [BUDESONIDE]
5. CC[C@H](C)C(=O)O[C@H]1CCC=C2C=C[C@H](C)[C@H](CC[C@@H]3C[C@@H](O)CC(=O)O3)[C@H]21

OUTPUT:
1: Compound NOT metabolized; 2: Compound metabolized; 3: Compound NOT metabolized; 4: Compound NOT metabolized; 5: Compound metabolized

INPUT: What value of Bacterial Biotransformation has been reported for the following molecule? Nc1nc(NC2CC2)c2ncn([C@H]3C=C[C@@H](CO)C3)c2n1.Nc1nc(NC2CC2)c2ncn([C@H]3C=C[C@@H](CO)C3)c2n1.O=S(=O)(O)O [ABACAVIR SULFATE]
OUTPUT: Compound NOT metabolized

----------
Experiment: The drug is tested on Clostridium asparagiforme strain: DSM15981 for biotransformation. The drug concentrations were measured before and after a 12-h incubation by liquid-chromatography-coupled mass spectrometry (LC–MS)
Assay type: ADME
Design: dose 2 uM, timepoint 0 vs 12 hours
Settings: enterocloster asparagiformis, 2 µM
property label: Bacterial Biotransformation

Example cases with answers are listed next.
molecule="CCCN(CCC)CCc1cccc2c1CC(=O)N2 [ROPINIROLE]" property_label="Bacterial Biotransformation" measurement="Compound NOT metabolized"
molecule="CCc1cccc2c3c([nH]c12)C(CC)(CC(=O)O)OCC3 (centres undefined) [ETODOLAC]" property_label="Bacterial Biotransformation" measurement="Compound NOT metabolized"
molecule="Cc1nc(Nc2ncc(C(=O)Nc3c(C)cccc3Cl)s2)cc(N2CCN(CCO)CC2)n1.O [DASATINIB]" property_label="Bacterial Biotransformation" measurement="Compound NOT metabolized"
molecule="CC(C)(C)NC[C@H](O)COc1ccccc1C1CCCC1.CC(C)(C)NC[C@H](O)COc1ccccc1C1CCCC1.O=S(=O)(O)O [PENBUTOLOL SULFATE]" property_label="Bacterial Biotransformation" measurement="Compound NOT metabolized"
molecule=Cc1cc2c(cc1S(N)(=O)=O)S(=O)(=O)CCC2 property_label="Bacterial Biotransformation" measurement="Compound NOT metabolized"

Give Bacterial Biotransformation for each listed item.
1. C#C[C@]1(O)CC[C@H]2[C@@H]3CCC4=Cc5oncc5C[C@]4(C)[C@H]3CC[C@@]21C [DANAZOL]
2. CCN(CC)CCOCCOC(=O)C1(c2ccccc2)CCCC1.O=C(O)CC(O)(CC(=O)O)C(=O)O [CARBETAPENTANE CITRATE]
3. CCC1(c2ccc(N)cc2)CCC(=O)NC1=O (centres undefined) [AMINOGLUTETHIMIDE]

OUTPUT:
1: Compound metabolized; 2: Compound metabolized; 3: Compound NOT metabolized

INPUT: What value of Bacterial Biotransformation has been reported for the following molecule? OC(Cn1cncn1)(Cn1cncn1)c1ccc(F)cc1F [FLUCONAZOLE]
OUTPUT: Compound NOT metabolized

----------
Details: bacteroides fragilis, 12 h, 2 µM
Description: The drug is tested on Bacteroides fragilis strain: DS-208 for biotransformation. The drug concentrations were measured before and after a 12-h incubation by liquid-chromatography-coupled mass spectrometry (LC–MS)
property label: Bacterial Biotransformation

compound=COc1ccc2c3c1O[C@H]1C[C@@H](O)C=C[C@@]31CCN(C)C2 measurement="Compound metabolized"
compound="COC(=O)C1=C(C)NC(C)=C(C(=O)OC(C)C)C1c1cccc2nonc12 (stereo unspecified)" measurement="Compound NOT metabolized"
compound="CCCN1C[C@H](CSC)C[C@@H]2c3cccc4[nH]cc(c34)C[C@H]21.CS(=O)(=O)O [PERGOLIDE MESYLATE]" measurement="Compound NOT metabolized"
compound=C[C@]12CCC(=O)C=C1[C@@H]1C[C@@H]1[C@H]1[C@@H]3[C@@H]4C[C@@H]4[C@@]4(CCC(=O)O4)[C@@]3(C)CC[C@@H]12 measurement="Compound NOT metabolized"
compound=C[C@@H]1CC[C@H]2[C@@H](C)C(=O)O[C@@H]3O[C@@]4(C)CC[C@@H]1[C@]32OO4 measurement="Compound metabolized"

Next up:
INPUT: What value of Bacterial Biotransformation has been reported for the following compound? CC(=O)O[C@H]1C(=O)[C@@]2(C)[C@H]([C@H](OC(=O)c3ccccc3)[C@]3(O)C[C@H](OC(=O)[C@H](O)[C@@H](NC(=O)c4ccccc4)c4ccccc4)C(C)=C1C3(C)C)[C@]1(OC(C)=O)CO[C@@H]1C[C@@H]2O
OUTPUT: Compound metabolized

----------
Assay: The drug is tested on Bacteroides dorei strain: DSM17855 for biotransformation. The drug concentrations were measured before and after a 12-h incubation by liquid-chromatography-coupled mass spectrometry (LC–MS)
Settings: phocaeicola dorei, 2 µM
property label: Bacterial Biotransformation

Example cases with answers are listed next.
molecule="CCN(CC)CCCC(C)Nc1c2ccc(Cl)cc2nc2ccc(OC)cc12 (configuration not stated)" measurement="Compound NOT metabolized"
molecule="CN(C)C(=O)Oc1cccc([N+](C)(C)C)c1.[Br-] [NEOSTIGMINE BROMIDE]" measurement="Compound metabolized"
molecule=COC(=O)Nc1nc2ccc(C(=O)c3ccccc3)cc2[nH]1 measurement="Compound metabolized"
molecule=CN1CCN(C(=O)O[C@H]2c3nccnc3C(=O)N2c2ccc(Cl)cn2)CC1 measurement="Compound NOT metabolized"
molecule="C=CCc1ccccc1OCC(O)CNC(C)C (configuration not stated)" measurement="Compound NOT metabolized"

Give Bacterial Biotransformation for each listed item.
1. CN1CCN(C2=Nc3ccccc3Oc3ccc(Cl)cc32)CC1.O=C(O)CCC(=O)O [LOXAPINE SUCCINATE]
2. COc1cc2nc(N3CCN(C(=O)C4COc5ccccc5O4)CC3)nc(N)c2cc1OC.CS(=O)(=O)O (configuration not stated) [DOXAZOSIN MESYLATE]
3. COc1c2occc2cc2ccc(=O)oc12
4. O=c1[nH]c2ccccc2n1CCCN1CCC(n2c(=O)[nH]c3cc(Cl)ccc32)CC1

OUTPUT:
1: Compound NOT metabolized; 2: Compound metabolized; 3: Compound metabolized; 4: Compound NOT metabolized

Give Bacterial Biotransformation for each listed item.
1. NC(=O)N1c2ccccc2CC(=O)c2ccccc21 [OXCARBAZEPINE]
2. CC(=O)O[C@]1(C(C)=O)CC[C@H]2[C@@H]3C=C(Cl)C4=CC(=O)[C@@H]5C[C@@H]5[C@]4(C)[C@H]3CC[C@@]21C [CYPROTERONE ACETATE]
3. Cc1nc2n(c(=O)c1CCN1CCC(c3noc4cc(F)ccc34)CC1)CCCC2O (configuration not stated)
4. CS(=O)(=O)O.O.O.O.O=C1Cc2cc(CCN3CCN(c4nsc5ccccc45)CC3)c(Cl)cc2N1 [ZIPRASIDONE MESYLATE]

OUTPUT:
["Compound metabolized", "Compound metabolized", "Compound metabolized", "Compound NOT metabolized"]

Give Bacterial Biotransformation for each listed item.
1. CCCC(=O)Nc1ccc(OCC(O)CNC(C)C)c(C(C)=O)c1 (configuration not stated)
2. O=c1[nH]c2ccccc2n1C1CCN(CCCC(c2ccc(F)cc2)c2ccc(F)cc2)CC1 [PIMOZIDE]

OUTPUT:
1. Compound NOT metabolized
2. Compound NOT metabolized

Give Bacterial Biotransformation for each listed item.
1. Cc1ccccc1C(OCCN(C)C)c1ccccc1.O=C(O)CC(O)(CC(=O)O)C(=O)O (configuration not stated) [ORPHENADRINE CITRATE]
2. O=C1N=C([O-])NC1(c1ccccc1)c1ccccc1.[Na+] [PHENYTOIN SODIUM]

OUTPUT:
Compound NOT metabolized
Compound metabolized
